Each record here notes measured pEC50.
Experiment: Binding affinity to Fe3+ assessed as compound-Fe3+ complex formation incubated for 3 hrs by Chrome Azurol S assay
Counter-ions that a name gives are not always drawn.
pEC50 here: minus log base 10 of the concentration, concentration in moles per litre.

# example entries with known answers
CC(=O)N(O)CCCCCNC(=O)CCC(=O)N(O)CCCCCNC(=O)CCc1ccccc1; 4.89
CC(=O)N(O)CCCCCNC(=O)CCC(=O)N(O)CCCCCNC(=O)/C=C/c1ccccc1; 4.41
CC(=O)N(O)CCCCCNC(=O)CCC(=O)N(O)CCCCCNC(=O)CCC(=O)N(O)CCCCCN [DEFEROXAMINE MESYLATE]; 4.69

Could you now consider this next molecule?
Give the measured pEC50 of O=C1CCC(=O)N(O)CCCCCNC(=O)CCC(=O)N(O)CCCCCNC(=O)CCC(=O)N(O)CCCCCN1 [NOCARDAMINE] .
4.65
